# Test Protocol: Solubility tests of active agent in solvent systems
# Format: physicochemical
# Recorded Conditions: 0.05 M calcium gluconate in water, pH 3.1, aqueous buffer, thermodynamic from solid, 0.05 M calcium gluconate pH 3.1 in water; read-out: Solubilized miconazole ± S.D.
Measured Endpoint: solubility

Need solubility of Clc1ccc(COC(Cn2ccnc2)c2ccc(Cl)cc2Cl)c(Cl)c1 (stereo not shown) , thanks. 650 µg/mL

====

# Test Protocol: Solubility tests of active agent in solvent systems
# Format: physicochemical
# Recorded Conditions: 0.50% polysorbate 80 + 25% ethanol + ammonium acetate pH 3.1, pH 3.1, aqueous with cosolvent or surfactant or cyclodextrin, thermodynamic from solid, Table 2: 0.50% polysorbate 80 + 25% ethanol + ammonium acetate pH 3.1; read-out: Solubilized miconazole ± S.D.
# Procedure: General example for the solubility tests Each of the solutions applied in the solubilization tests were prepared as follows (the specific amount of the components comes from the Tables below): 1. […] 2. The specific amount of co-solvent was measured into a beaker and the specific amount of the previously prepared 0.05M ammonium acetate solution was added. The pH of this solution was measured and set to pH 3.1 with glacial acetic acid. […]
Measured Endpoint: solubility (mg/mL)
Value expressed in mg/mL; do not type the unit.

Need solubility of Clc1ccc(COC(Cn2ccnc2)c2ccc(Cl)cc2Cl)c(Cl)c1 (stereo not shown) , thanks. 44.7

====

# Test Protocol: Solubility tests of active agent in solvent systems
# Assay type: physicochemical
# Recorded Conditions: 30% macrogol 400 in water, aqueous with cosolvent or surfactant or cyclodextrin, thermodynamic from solid, 30% macrogol 400 in water; read-out: Solubilized miconazole ± S.D.
Measured Endpoint: solubility (µg/mL)
Value expressed in µg/mL; do not type the unit.

Need solubility of Clc1ccc(COC(Cn2ccnc2)c2ccc(Cl)cc2Cl)c(Cl)c1 (stereo not shown) [miconazole] , thanks. 22

====

# Test Protocol: Solubility tests of active agent in solvent systems
# Format: physicochemical
# Recorded Conditions: 4.0% polysorbate 80 + 25% ethanol + ammonium acetate pH 3.1, pH 3.1, aqueous with cosolvent or surfactant or cyclodextrin, thermodynamic from solid, Table 2: 4.0% polysorbate 80 + 25% ethanol + ammonium acetate pH 3.1; read-out: Solubilized miconazole ± S.D.
# Method: General example for the solubility tests Each of the solutions applied in the solubilization tests were prepared as follows (the specific amount of the components comes from the Tables below): 1. […] 2. The specific amount of co-solvent was measured into a beaker and the specific amount of the previously prepared 0.05M ammonium acetate solution was added. The pH of this solution was measured and set to pH 3.1 with glacial acetic acid. […]
Measured Endpoint: solubility (mg/mL)
Value expressed in mg/mL; do not type the unit.

Need solubility of Clc1ccc(COC(Cn2ccnc2)c2ccc(Cl)cc2Cl)c(Cl)c1 (stereo not shown) , thanks. 43.3

====

# Test Protocol: Solubility tests of active agent in solvent systems
# Format: physicochemical
# Recorded Conditions: 0.25% polysorbate 80 + 25% ethanol + ammonium acetate pH 3.1, pH 3.1, aqueous with cosolvent or surfactant or cyclodextrin, thermodynamic from solid, Table 2: 0.25% polysorbate 80 + 25% ethanol + ammonium acetate pH 3.1; read-out: Solubilized miconazole ± S.D.
Measured Endpoint: solubility (mg/mL)
Value expressed in mg/mL; do not type the unit.

Need solubility of Clc1ccc(COC(Cn2ccnc2)c2ccc(Cl)cc2Cl)c(Cl)c1 (stereo not shown) , thanks. 34.4

====

# Test Protocol: Solubility tests of active agent in solvent systems
# Format: physicochemical
# Recorded Conditions: 30% glycerol in water, aqueous with cosolvent or surfactant or cyclodextrin, thermodynamic from solid, 30% glycerol in water; read-out: Solubilized miconazole ± S.D.
Measured Endpoint: solubility (µg/mL)
Value expressed in µg/mL; do not type the unit.

Need solubility of Clc1ccc(COC(Cn2ccnc2)c2ccc(Cl)cc2Cl)c(Cl)c1 (stereo not shown) , thanks. 24
